Cited source: PubChem BioAssay AID463173

# Tested on: Wild type
# Procedure Details: S. aureus survival, RN4220 and DeltatarO strains – OD600, teichoic acid synthesis inhibitors, primary screen (AID 463173)
# Experimental Conditions: S. aureus RN4220 wild type/DeltatarO growth, OD600, 18 h, active compounds read low, screened at 18.75 µg/mL (by protocol)
Screen size: about 52,000 compounds; about 1,700 (3.3%) were called active. The sample holds actives, similar compounds and a random draw of the others, so the mix is not that of the screen.
Measured survival of individual entries
Report as a plain number; the unit % is understood.

// known answers, use as guide
• Cc1ccccc1C(=O)NC1CCN(CC(=O)NC(C)(C)C)CC1 = 100
• Oc1ccc(NCc2ccccc2OCc2ccc(Cl)cc2)cc1 = 72

Entry CCc1ccccc1NC(=O)Nc1ccc2snnc2c1 ; survival = 82

Entry CCn1cc(S(=O)(=O)c2cccc(Cl)c2)c(=O)c2cc(F)c(N3CCC(C)CC3)cc21 ; survival = 57

Entry O=C(Nc1cccs1)Nc1cc(C(F)(F)F)ccc1Cl ; survival = 26

Entry CCc1ccccc1NC(=O)Cn1c(SCc2ccc(F)cc2)nc2ccncc21 ; survival = 48

Entry CCOc1cc(C#N)c(NC(=O)c2ccc(OC)c(S(=O)(=O)N3CCCCC3)c2)cc1OCC ; survival = 75

Entry CCOc1c(Cl)cc(CNc2ccc3[nH]c(=O)[nH]c3c2)cc1OC ; survival = 88

Entry COc1cc(NC(=O)Cc2c(C(=O)O)c(C)cn2C)cc(OC)c1 ; survival = 99

Entry CC1Oc2ccccc2N(CC(=O)NCc2ccccc2)C1=O (stereo not given) ; survival = 105

Entry C=Cc1ccc(Cn2c(C(=O)O)c(CNCc3ccc(F)cc3)c3ccc(C)cc32)cc1 ; survival = 68

====

# Tested on: Wild type
# Procedure Details: S. aureus survival, RN4220 and DeltatarO strains – OD600, teichoic acid synthesis inhibitors, primary screen (AID 463173)
# Experimental Conditions: S. aureus RN4220 wild type/DeltatarO growth, OD600, 18 h, screened at 18.75 µg/mL (by protocol)
Hit rate of the full screen: of about 52,000 compounds, about 1,700 (3.3%) were called active. Rule as the data show it: active = survival mostly below about 52% (no sharp cut-off); inactive = mostly above about 56%. The entries come from a sample that favours actives as a whole.
Permitted responses: T = active, F = inactive

Record excerpt, results attached:
* CC(C)CCN(Cc1ccco1)C(=O)c1cc2c(s1)-c1ccccc1OC2 | T
* COc1ccc(CNC(=O)c2cc(Nc3ccc(C)cc3C)nc3ccccc23)cc1 | F
* CCc1ccc(NC(=O)Cn2c(=O)n(CC3CCCO3)c(=O)c3cc(OC)c(OC)cc32)cc1 (stereo unspecified) | F
* CCOC(=O)c1cc(-c2ccccc2)n(CCC(=O)NCCc2cccc(C)c2)c1C | F
* CCc1nn(CC(=O)NCCc2ccc(OC)c(OC)c2)c(=O)c2cc3occc3n12 | F
* CCCCSc1nnc2c(n1)OC(c1ccc(C)s1)Nc1ccccc1-2 (stereo unspecified) | F

Query string: What call does the record list for O=C(Cn1nc(-c2ccc(Cl)cc2)ccc1=O)NCCc1ccccc1 ?
Result string: F

Query string: What call does the record list for CCOC(=O)c1cc(-c2ccccc2)n(CCC(=O)NCCc2ccccc2)c1C ?
Result string: T

Query string: What call does the record list for CCc1ccc(CNC(=O)c2ccc3c(c2)nc2n3CCOC2)cc1 ?
Result string: F

Query string: What call does the record list for CCc1ccc(CNC(=O)CN2C(=O)CSc3c2c(C)nn3-c2ccccc2)cc1 ?
Result string: F

Query string: What call does the record list for CC(C)n1nnnc1SCC(=O)OC1CCCCC1 ?
Result string: F

====

# Test system: Wild type
# Procedure Details: S. aureus survival, RN4220 and DeltatarO strains – OD600, teichoic acid synthesis inhibitors, primary screen (AID 463173)
# Experimental Conditions: S. aureus RN4220 wild type/DeltatarO growth, OD600, 18 h, active compounds read low, screened at 18.75 µg/mL (by protocol)
Hit rate of the full screen: of about 52,000 compounds, about 1,700 (3.3%) were called active. This excerpt belongs to a sample that is enriched for actives.
Parameter class (string): assigned from measured survival. Ranges: one (below 60%), two (60% to below 90%), three (90% or more)

• Cc1ccoc1C(=O)Nc1ccccc1C(=O)O = three
• Cc1ccc(CNC(=O)CSc2c(C(C)C)cnc3c2c(=O)n(C)c(=O)n3C)cc1 = one

Query string: Looking at CC(C(=O)NCc1ccccc1)n1ccc2cc(S(=O)(=O)N3CCCC3)ccc21 (configuration not stated) , which class would you pick?
Result string: one

Query string: Looking at COCCNC(=O)c1ccc(-c2nc(CN3CCc4ccccc43)c(C)o2)cc1 , which class would you pick?
Result string: two

Query string: Looking at N#Cc1nc(COc2cccc(Cl)c2)oc1NCCc1ccccc1 , which class would you pick?
Result string: one

Query string: Looking at CCc1cnc2c(c1SCC(=O)NCc1ccc(C)cc1)c(=O)n(C)c(=O)n2C , which class would you pick?
Result string: two

Query string: Looking at O=S(=O)(Nc1ccccc1C(F)(F)F)c1ccc(N2CCCCS2(=O)=O)cc1 , which class would you pick?
Result string: three

Query string: Looking at Cc1ccc(CNC(=O)C(C)n2ccc3cc(S(=O)(=O)N4CCCC4)ccc32)cc1 (configuration not stated) , which class would you pick?
Result string: two

Query string: Looking at Cc1cc(C)c(S(=O)(=O)N2CCN(Cc3nc4ccc(C)cc4o3)CC2)c(C)c1 , which class would you pick?
Result string: two

Query string: Looking at COc1ccc(C(=O)Nc2ccc(-c3nnc4n3CCCCC4)cc2)cc1 , which class would you pick?
Result string: one

Query string: Looking at CC1CCN(S(=O)(=O)c2ccc3c(c2)N(CC(=O)N2CCN(c4ccccc4)CC2)C(=O)CO3)CC1 , which class would you pick?
Result string: two

Query string: Looking at C=CCN1C2=NCCCN2c2ccccc21 , which class would you pick?
Result string: three

====

# Tested on: Wild type
# Procedure Details: S. aureus survival, RN4220 and DeltatarO strains – OD600, teichoic acid synthesis inhibitors, primary screen (AID 463173)
# Experimental Conditions: S. aureus RN4220 wild type/DeltatarO growth, OD600, 18 h, active compounds read low, screened at 18.75 µg/mL (by protocol)
Hit rate of the full screen: of about 52,000 compounds, about 1,700 (3.3%) were called active. Shown is part of a subset that was picked to be rich in actives.
Measured Metric: survival (%)
Report as a plain number; the unit % is understood.

// known answers, use as guide
- COc1ccc(-c2cc(NCc3ccc(F)cc3)n3cnnc3n2)cc1: 72
- CN(C(=O)CSc1nc2ccccc2n1Cc1cccc(C(F)(F)F)c1)c1ccccc1: 87
- O=C(CSc1nc2c([nH]c3ccccc32)c(=O)n1-c1ccccc1)N1CCCc2ccccc21: 128
- COc1ccc(-c2cc(C(F)(F)F)nc(NCc3ccc(F)cc3)n2)cc1: -5
- O=C(CSc1nnnn1Cc1ccccc1)Nc1ccccc1: 114

Entry Cc1ccc(N(CC(=O)Nc2ccc(Cl)cc2)S(=O)(=O)c2cccc3nonc23)cc1 ; survival = 125

====

# Test system: Wild type
# Procedure Details: S. aureus survival, RN4220 and DeltatarO strains – OD600, teichoic acid synthesis inhibitors, primary screen (AID 463173)
# Experimental Conditions: S. aureus RN4220 wild type/DeltatarO growth, OD600, 18 h, active compounds read low, screened at 18.75 µg/mL (by protocol)
Out of some 52,000 compounds screened, about 1,700 (3.3%) were called active. This excerpt belongs to a sample that is enriched for actives.
Measured Metric: survival (%)
Report as a plain number; the unit % is understood.

// known answers, use as guide
• COc1cccc(/C=N/NC(=O)c2cccc(C)c2)c1O = 1
• Cc1ccc(C)c(N2CCN(C(=O)NC3CCCCC3)CC2)c1 = 103

Entry COc1cccc(/C=N/NC(=O)COc2c(C)cccc2C)c1O ; survival = 113

====

# Tested on: Wild type
# Procedure Details: S. aureus survival, RN4220 and DeltatarO strains – OD600, teichoic acid synthesis inhibitors, primary screen (AID 463173)
# Experimental Conditions: S. aureus RN4220 wild type/DeltatarO growth, OD600, 18 h, screened at 18.75 µg/mL (by protocol)
About 1,700 (3.3%) of roughly 52,000 compounds were called active. No stated cut-off is given here; in the data, active means survival mostly below about 52% (no sharp cut-off); inactive means mostly above about 56%. What follows is part of a selection rich in actives, with near analogues and random picks from the rest.
Permitted responses: active, inactive

- Cc1cc(Nc2ccc(Br)c(C)c2)n2nc(-c3ccco3)nc2n1: active

Query string: What call does the record list for Cc1cc(Nc2cccc(F)c2)n2nc(-c3ccco3)nc2n1 ?
Result string: inactive

Query string: What call does the record list for COC(=O)c1sccc1S(=O)(=O)N1CCN(c2cccc(C)c2C)CC1 ?
Result string: inactive

====

# System: Wild type
# Procedure Details: S. aureus survival, RN4220 and DeltatarO strains – OD600, teichoic acid synthesis inhibitors, primary screen (AID 463173)
# Experimental Conditions: S. aureus RN4220 wild type/DeltatarO growth, OD600, 18 h, active compounds read low, screened at 18.75 µg/mL (by protocol)
The whole screen tested about 52,000 compounds, of which about 1,700 (3.3%) were called active. The sample holds actives, similar compounds and a random draw of the others, so the mix is not that of the screen.
Binary call on survival with cut-off 60%: strictly below means 1.0, and equality or higher means 0.0.

• CCCN1C(=O)c2ccccc2CC1(C)C(=O)NC1CCCCC1 (configuration not stated) = 0.0
• COc1ccc(C)cc1NC(=O)CN1C(=O)CSc2ccc(S(=O)(=O)N3CCCC3)cc21 = 0.0

Query string: Identify whether the molecule CC(=O)Nc1ccc(/C=C/c2nc(-c3ccccc3O)n(-c3ccccc3)n2)cc1 records survival below 60%.
Result string: 0.0

Query string: Identify whether the molecule CCc1ccc(NC(=O)Cn2cnc3sc(C)c(S(=O)(=O)N4CCN(c5ccccc5OC)CC4)c3c2=O)cc1 records survival below 60%.
Result string: 0.0

Query string: Identify whether the molecule CCCn1c2ccccc2c2cnn(CC(=O)NCCc3ccc(S(N)(=O)=O)cc3)c(=O)c21 records survival below 60%.
Result string: 0.0

Query string: Identify whether the molecule CCCCN(Cc1ccccc1)C(=O)c1oc(=O)c2ccccc2c1-c1ccc(C)cc1 records survival below 60%.
Result string: 1.0

Query string: Identify whether the molecule Oc1ccc(/C=C/c2nc(-c3ccccc3O)n(-c3ccccc3)n2)c(O)c1 records survival below 60%.
Result string: 1.0

Query string: Identify whether the molecule CCOC(=O)c1ccc(N2C(=O)c3n[nH]c(-c4ccco4)c3C2c2ccc(O)cc2)cc1 (configuration not stated) records survival below 60%.
Result string: 0.0

Query string: Identify whether the molecule Cc1ccc(-c2c(C(=O)NCCc3ccc(Cl)cc3)oc(=O)c3ccccc23)cc1 records survival below 60%.
Result string: 1.0
